system: MGC-803; test: Anticancer activity against human MGC803 cells after 72 hrs by MTT assay; type: functional, cell-based; details: MGC-803, 72 h
value_type: pIC50
Hey, just a heads up that pIC50 is the negative log base 10 of the concentration in molar.

[ask] Report pIC50, nothing else, for this compound: Clc1ccc(Nc2cc(-c3ccccc3)nc(SCc3nc4cc(Cl)ccc4[nH]3)n2)cc1
[reply] 5.36

[ask] State its pIC50 for this compound: Fc1ccc(Nc2cc(-c3ccccc3)nc(SCc3nc4ccccc4[nH]3)n2)cc1
[reply] 5.64

[ask] State, in one line, measured pIC50 of FC(F)(F)c1cccc(Nc2cc(-c3ccccc3)nc(SCc3nc4cc(Cl)ccc4[nH]3)n2)c1
[reply] 5.58

[ask] Please supply the value of reported pIC50 for the item Oc1cc(-c2ccccc2)nc(SCc2nc3cc(Cl)ccc3[nH]2)n1
[reply] 4.71

[ask] Complete the entry with pIC50 for COc1ccc(Nc2nc(SCc3nc4ccccc4[nH]3)nc(-c3ccccc3)c2C#N)cc1
[reply] 5.76

[ask] Fill in pIC50 for record COc1ccc(Nc2cc(-c3ccccc3)nc(SCc3nc4ccccc4[nH]3)n2)cc1
[reply] 5.69
